Below, each of the compounds is paired with its reported MIC value.
Test system: Aspergillus terreus AT4
Assay: MIC (YAG medium)
Type: cell-based
Conditions: Aspergillus terreus; YAG medium; MIC banded into grades; AT4; read-out: MIC A. terreus (grade)
Experimental: Between 1 and 5 mgs of compound were accurately weighed out into a sterile Eppendorf tube. The compound was dissolved in DMSO to give a solution containing 5 mg/mL. Tubes were stored at −20° C. until required. […] This produced MIC plates with a drug range 50-0.05 mg/L and organism inocula of 1-2×10^4 cfu/mL for Aspergillus spp. and other filamentous fungi and 1-2×10^3 cfu/mL for yeasts. […] Growth was assessed by monitoring the optical density at 485 nm for each well. […]

[
  {
    "structure": "O=C(Nc1ccccc1F)C(=O)c1c(-c2ccccc2)cc2ccc3ccccc3n12",
    "MIC": "> 10 µg/mL"
  },
  {
    "structure": "O=C(Nc1ccc(N2CCN(CCc3ccco3)CC2)cc1)C(=O)c1c(-c2ccccc2)cc2ccccn12",
    "MIC": "< 1 µg/mL"
  },
  {
    "structure": "CC(C)c1nccn1CCOC(=O)C(C)(C)c1cccc(NC(=O)C(=O)c2c(-c3ccccc3)cc3ccccn23)c1",
    "MIC": "1 to 10 µg/mL"
  },
  {
    "structure": "Cc1cccc(N2CCN(c3ccc(NC(=O)C(=O)c4c(-c5ccccc5)cc5ccccn45)cc3)CC2)n1",
    "MIC": "< 1 µg/mL"
  },
  {
    "structure": "Cc1cc(OCCOc2ccc(NC(=O)C(=O)c3c(-c4ccccc4)cc4ccccn34)cc2)cc(C)n1",
    "MIC": "< 1 µg/mL"
  },
  {
    "structure": "Cc1cc(C)nc(N2CCN(c3ccc(NC(=O)C(=O)c4c(C5CCOCC5)cc5ccccn45)cc3)CC2)c1",
    "MIC": "< 1 µg/mL"
  },
  {
    "structure": "CC(C)(C)CN1CCN(c2ccc(NC(=O)C(=O)c3c(-c4ccccc4)cc4ccccn34)nc2)CC1",
    "MIC": "< 1 µg/mL"
  },
  {
    "structure": "COc1ccc(NC(=O)C(=O)c2c(C)c(-c3ccccc3)c3ccccn23)cc1",
    "MIC": "> 10 µg/mL"
  },
  {
    "structure": "Cc1nccn1CCCOc1ccc(NC(=O)C(=O)c2c(-c3ccccc3)cc3ccccn23)cc1C(C)C",
    "MIC": "1 to 10 µg/mL"
  },
  {
    "structure": "O=C(Nc1ccc(N2CCN(c3cc(OCCO)ccn3)CC2)cc1)C(=O)c1c(-c2ccccc2)cc2ccccn12",
    "MIC": "1 to 10 µg/mL"
  },
  {
    "structure": "Cc1cc(C)nc(N2CCN(c3ccc(NC(=O)C(=O)c4c(C5CCCCC5)cc5ccccn45)cc3)CC2)c1",
    "MIC": "< 1 µg/mL"
  },
  {
    "structure": "COCCOc1cc(C)nc(N2CCN(c3ccc(NC(=O)C(=O)c4c(-c5ccccc5)cc5ccccn45)cc3)CC2)c1",
    "MIC": "< 1 µg/mL"
  },
  {
    "structure": "CCc1ccnc(N2CCN(c3ccc(NC(=O)C(=O)c4c(-c5ccccc5)cc5ccccn45)cc3)CC2)c1",
    "MIC": "< 1 µg/mL"
  },
  {
    "structure": "Cc1cc(C)nc(N2CCN(c3ccc(NC(=O)C(=O)c4c(C(C)C)cc5ccccn45)cc3)CC2)c1",
    "MIC": "< 1 µg/mL"
  },
  {
    "structure": "Cc1c(-c2ccccc2)c2ccccn2c1C(=O)C(=O)Nc1ccc(N2CCOCC2)cc1",
    "MIC": "> 10 µg/mL"
  },
  {
    "structure": "O=C(Nc1ccc(N2CCN(c3cccc(CCO)n3)CC2)cc1)C(=O)c1c(-c2ccccc2)cc2ccccn12",
    "MIC": "< 1 µg/mL"
  },
  {
    "structure": "Cc1cc(C)nc(OCCOc2ccc(NC(=O)C(=O)c3c(-c4ccccc4)cc4ccccn34)cc2)c1",
    "MIC": "< 1 µg/mL"
  },
  {
    "structure": "Cc1cc(NC(=O)C(=O)c2c(-c3ccccc3)cc3ccccn23)ccc1OCCCn1ccnc1C(C)C",
    "MIC": "1 to 10 µg/mL"
  },
  {
    "structure": "Cc1cc(C)nc(NCCNc2ccc(NC(=O)C(=O)c3c(-c4ccccc4)cc4ccccn34)cc2)c1",
    "MIC": "< 1 µg/mL"
  }
]
